B1: glmS ribozyme (parent)
chain: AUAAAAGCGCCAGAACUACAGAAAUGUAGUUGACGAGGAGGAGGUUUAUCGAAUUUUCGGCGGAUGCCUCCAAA

Variants of: B1
assay_details: self-cleavage kobs at 10000 uM GlcN6P; higher = faster cleavage; RNA array
cond: with glucosamine-6-phosphate
This sample holds only a part of the variants without activity.
Mark false (0) for self-cleavage kobs at 10000 uM GlcN6P values under 0.0003 s⁻¹, and true (1) for everything at or above.

As a guide, the following entries are already answered.
# mutant, label_class
records = [
    ("A12U U54A U69A", "true (1)"),
    ("G37C A42C C71G", "false (0)"),
    ("G29C A39C A48C G60A", "false (0)"),
]

State whether the measured self-cleavage kobs at 10000 uM GlcN6P reaches 0.0003 s⁻¹, counting equality as reaching it, for A6C C34A C58A
false (0)

Please give the result for A53G U69A too.
false (0)

Please give the result for U55G U56G too.
true (1)

Please give the result for G13C A15G U45A too.
false (0)

Please give the result for A33U G41U U49A A52U U69A too.
false (0)

Please give the result for C11U A15G C16U C50G U54G U56A U69C too.
false (0)

Please give the result for G37A G43A too.
false (0)

Please give the result for A15U C71A too.
true (1)

Please give the result for U49G U65G too.
false (0)

The measured values listed here are drawn from the supplement of paper PMC7125110.
